assay: The drug is tested on Clostridium sporogenes strain: ATCC15579 for biotransformation. The drug concentrations were measured before and after a 12-h incubation by liquid-chromatography-coupled mass spectrometry (LC–MS); details: 2 µM
value_type: Bacterial Biotransformation

[[record]]
compound = "O=c1[nH]c2ccccc2n1CCCN1CCC(n2c(=O)[nH]c3cc(Cl)ccc32)CC1 [DOMPERIDONE]"
meas_value = "Compound NOT metabolized"

[[record]]
compound = "CCCCCCOC(=O)/N=C(/N)c1ccc(NCc2nc3cc(C(=O)N(CCC(=O)OCC)c4ccccn4)ccc3n2C)cc1.CS(=O)(=O)O [DABIGATRAN ETEXILATE MESYLATE]"
meas_value = "Compound NOT metabolized"

[[record]]
compound = "CCCC(=O)Nc1ccc(OCC(O)CNC(C)C)c(C(C)=O)c1 (configuration not stated) [ACEBUTOLOL]"
meas_value = "Compound NOT metabolized"

[[record]]
compound = "NS(=O)(=O)c1cc2c(cc1Cl)N=C(CSCc1ccccc1)NS2(=O)=O [BENZTHIAZIDE]"
meas_value = "Compound NOT metabolized"

[[record]]
compound = "C#C[C@]1(O)CC[C@H]2[C@@H]3CCC4=CC(=O)CC[C@@H]4[C@H]3CC[C@@]21CC [LEVONORGESTREL]"
meas_value = "Compound metabolized"

[[record]]
compound = "CN(C/C=C/C#CC(C)(C)C)Cc1cccc2ccccc12 [TERBINAFINE]"
meas_value = "Compound NOT metabolized"

[[record]]
compound = "N#Cc1ccc(C(c2ccc(C#N)cc2)n2cncn2)cc1 [LETROZOLE]"
meas_value = "Compound NOT metabolized"

[[record]]
compound = "Cc1cc(C)cc(OCC2CNC(=O)O2)c1 (configuration not stated) [METAXALONE]"
meas_value = "Compound NOT metabolized"

[[record]]
compound = "Cc1nc(Nc2ncc(C(=O)Nc3c(C)cccc3Cl)s2)cc(N2CCN(CCO)CC2)n1.O [DASATINIB]"
meas_value = "Compound NOT metabolized"

[[record]]
compound = "CN1C(=O)CC(C)(c2ccccc2)C1=O (configuration not stated) [METHSUXIMIDE]"
meas_value = "Compound NOT metabolized"

[[record]]
compound = "CCCCC(=O)N(Cc1ccc(-c2ccccc2-c2nnn[nH]2)cc1)[C@H](C(=O)O)C(C)C"
meas_value = "Compound NOT metabolized"

[[record]]
compound = "CCN(CC)CCNC(C(=O)OCCC(C)C)c1ccccc1.Cl.Cl (configuration not stated)"
meas_value = "Compound NOT metabolized"

[[record]]
compound = "CN(C)CC(c1ccc(O)cc1)C1(O)CCCCC1.O=C(O)CCC(=O)O (configuration not stated) [DESVENLAFAXINE SUCCINATE]"
meas_value = "Compound NOT metabolized"

[[record]]
compound = "COc1ccnc(C[S+]([O-])c2nc3ccc(OC(F)F)cc3[nH]2)c1OC (configuration not stated) [PANTOPRAZOLE]"
meas_value = "Compound metabolized"

[[record]]
compound = "CC(C)(C)NC[C@H](O)COc1ccccc1C1CCCC1.CC(C)(C)NC[C@H](O)COc1ccccc1C1CCCC1.O=S(=O)(O)O [PENBUTOLOL SULFATE]"
meas_value = "Compound NOT metabolized"

[[record]]
compound = "C#C[C@]1(O)CC[C@H]2[C@@H]3CCC4=Cc5oncc5C[C@]4(C)[C@H]3CC[C@@]21C [DANAZOL]"
meas_value = "Compound metabolized"

[[record]]
compound = "CCN(C(C)=O)c1cccc(-c2ccnc3c(C#N)cnn23)c1 [ZALEPLON]"
meas_value = "Compound NOT metabolized"


Taken from ChEMBL document CHEMBL5303573.
